# Target System: Mu-type opioid receptor (Homo sapiens, UniProt P35372)
# Sequence (P35372 whole entry): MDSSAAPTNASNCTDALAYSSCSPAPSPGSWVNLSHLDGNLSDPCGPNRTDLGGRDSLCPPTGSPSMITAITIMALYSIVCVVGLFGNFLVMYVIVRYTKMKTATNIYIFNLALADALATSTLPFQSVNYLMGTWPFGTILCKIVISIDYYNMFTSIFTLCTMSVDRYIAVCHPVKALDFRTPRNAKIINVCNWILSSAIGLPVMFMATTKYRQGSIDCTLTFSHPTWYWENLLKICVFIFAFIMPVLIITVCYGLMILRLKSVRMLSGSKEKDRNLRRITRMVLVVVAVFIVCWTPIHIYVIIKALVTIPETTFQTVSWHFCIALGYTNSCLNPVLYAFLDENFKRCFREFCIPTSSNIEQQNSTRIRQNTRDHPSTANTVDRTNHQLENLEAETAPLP
# Method: Agonist activity at mu opioid receptor (unknown origin) assessed as [35S]GTPgammaS binding by cell based assay
# Type: functional

- Smiles Str: "CN1CC[C@]23c4c5ccc(O)c4O[C@@]2(C)c2[nH]c4ccccc4c2C[C@@]3(CCCc2ccccc2)[C@H]1C5"
  EC50 (nM): 45.1

* * *

# Target System: Delta-type opioid receptor (Homo sapiens, UniProt P41143)
# Sequence (P41143 whole entry): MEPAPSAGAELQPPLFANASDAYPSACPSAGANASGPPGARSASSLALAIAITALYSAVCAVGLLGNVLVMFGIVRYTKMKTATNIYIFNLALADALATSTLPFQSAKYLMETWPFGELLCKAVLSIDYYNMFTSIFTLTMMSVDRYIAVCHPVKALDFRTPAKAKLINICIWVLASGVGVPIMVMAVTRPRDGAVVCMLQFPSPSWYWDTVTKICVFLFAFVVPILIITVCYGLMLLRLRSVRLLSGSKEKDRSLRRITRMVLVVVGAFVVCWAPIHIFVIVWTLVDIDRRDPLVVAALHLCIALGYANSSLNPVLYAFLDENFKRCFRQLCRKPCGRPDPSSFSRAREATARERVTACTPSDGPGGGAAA
# Method: Agonist activity at human delta-opioid receptor expressed in CHO cells by [35S]GTPgammaS binding assay
# Format: functional, cell-based

- Smiles Str: "Cc1cc(O)cc(C)c1C[C@H](N)C(=O)N1Cc2ccccc2C[C@@H]1C(=O)NCc1nc2ccccc2[nH]1"
  EC50: "0.0813 nM"

* * *

# Target System: Delta-type opioid receptor (Homo sapiens)
# Method: Antagonist activity at human delta opioid receptor expressed in CHO cell membrane assessed as inhibition of […]-induced [35S]-GTP-gammaS binding
# Type: cell membranes
# Test Parameters: cho
pIC50: −log10 of the molar value.

- Smiles Str: "Cc1cc(O)cc(C)c1C[C@H](N)C(=O)N1Cc2ccccc2C[C@H]1C(=O)NCC(=O)N1CCc2ccccc2C1"
  pIC50: 8.64

* * *

# Target System: Mu-type opioid receptor (Homo sapiens, UniProt P35372)
# Method: Displacement of [3H]DPN from human mu opioid receptor expressed in CHO cells by liquid scintillation counting
# Assay type: cell-based
Non-standard residues stand in square brackets, D forms with d. Residues, ends and D or L forms follow the SMILES beside them. *: point of attachment. Dmt = Cc1cc(O)cc(C)c1C[C@H](N)C(=O)O; Tic = O=C(O)[C@@H]1Cc2ccccc2CN1; NHBn = c1ccc(CN*)cc1

- Compound: "Cc1cc(O)cc(C)c1C[C@H](N)C(=O)N1Cc2ccccc2C[C@H]1C(=O)NCC(=O)NCc1ccccc1 (H-[Dmt]-[Tic]-Gly-NHBn)"
  Ki (nM): 16.2

* * *

# Target System: Kappa-type opioid receptor (Homo sapiens, UniProt P41145)
# Sequence (P41145 whole entry): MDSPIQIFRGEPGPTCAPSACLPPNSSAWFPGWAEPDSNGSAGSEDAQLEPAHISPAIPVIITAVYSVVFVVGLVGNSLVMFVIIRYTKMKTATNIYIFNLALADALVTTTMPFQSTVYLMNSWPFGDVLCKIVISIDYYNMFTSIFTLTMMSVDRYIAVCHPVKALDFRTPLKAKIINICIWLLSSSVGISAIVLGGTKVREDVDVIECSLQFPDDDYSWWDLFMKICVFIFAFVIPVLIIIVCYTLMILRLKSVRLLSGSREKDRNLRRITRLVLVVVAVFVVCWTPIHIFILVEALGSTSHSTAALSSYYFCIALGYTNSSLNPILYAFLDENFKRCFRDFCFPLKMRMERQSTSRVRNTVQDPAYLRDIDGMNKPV
# Method: Displacement of [3H]U69,593 from human kappa opioid receptor expressed in CHO cell membrane
# Type: cell membranes
pKi: −log10 of the molar value.
Parameter Measured: pKi

- Smiles Str: "Nc1nc2cc3c(cc2s1)CC1[C@@H]2CCCC[C@]32CCN1CC1CC1"
  Parameter Measured: "pKi"
  Recorded Number: 10.31

* * *

# Target System: Delta-type opioid receptor (Homo sapiens, UniProt P41143)
# Method: Binding affinity at delta opioid receptor (unknown origin)
pKi: −log10 of the molar value. Starred links: 1 amine or outer side, 2 acyl side, 3 side chain; linkers in the order of their positions; H or OH if unused. Positions of bridges follow the written chain, without caps; N, C: chain ends. Non-standard residues stand in square brackets, D forms with d. Residues, ends and D or L forms follow the SMILES beside them. CH2 = C([*:1])[*:2]
Known pKi of a selection of molecules
Parameter Measured: pKi

- Molecule: "C[C@H]1[C@H]2Cc3ccc(O)cc3[C@]1(C)CCN2CCC(=O)Nc1ccccc1"
  Recorded Number: 7.54
- Molecule: "N[C@@H](Cc1ccc(O)cc1)C(=O)N1Cc2ccccc2CC1CN[C@@H](Cc1ccccc1)C(=O)NC(CC1CCCCC1)C(=O)O (some centres not stated)"
  Recorded Number: 9.59
- Molecule: "CO[C@@]12CCC(=O)[C@]3(C)Oc4c(O)ccc5c4[C@@]31CCN(C)[C@@H]2C5"
  Recorded Number: 7.88
- Molecule: "NC(=O)[C@@H]1CSCSC[C@@H](NC(=O)[C@@H](N)Cc2ccc(O)cc2)C(=O)N[C@@H](Cc2ccccc2)C(=O)N[C@@H](Cc2ccccc2)C(=O)N1 (H-Y[dC]FFC-NH2; linker 2-5 via CH2)"
  Recorded Number: 8.74
- Molecule: "O=C1c2ccc(O)cc2[C@@]23CCCC[C@H]2[C@@H]1N(CC1CCCO1)CC3 (some centres not stated)"
  Recorded Number: 9.00
- Molecule: "Cc1cc(O)cc(C)c1C[C@H](N)C(=O)N1Cc2ccccc2C[C@H]1CN[C@@H](Cc1ccccc1)C(=O)N[C@@H](Cc1ccccc1)C(N)=O"
  Recorded Number: 9.36
- Molecule: "CN1CC[C@]23c4c5ccc(O)c4O[C@@]2(C)c2[nH]c4ccccc4c2C[C@@]3(CCCc2ccccc2)[C@H]1C5"
  Recorded Number: 8.71

* * *

# Target System: Delta-type opioid receptor (Homo sapiens)
# Method: Displacement of [3H]naltrindole from human delta opioid receptor expressed in CHO cell membrane
# Format: cell membranes
pKi: −log10 of the molar value.
Parameter Measured: pKi

- Smiles Str: "Cc1cc(O)cc(C)c1C[C@H](N)C(=O)N1Cc2ccccc2C[C@@H]1C(=O)NCC(=O)N(c1ccccc1)c1ccccc1"
  Recorded Number: 9.03
